Assay: Intrinsic clearance in human liver microsomes
Type: ADME, Microsome
Observable: microsomal CLint (µL/min/mg)
Just the number in µL/min/mg, nothing appended.

Just so you know, measured microsomal CLint for `CCNC(=O)[C@H]1O[C@@H](n2cnc3c(NCC(c4ccccc4)c4ccccc4)nc(C(=O)NCCNC(=O)NCCN(C(C)C)C(C)C)nc32)[C@H](O)[C@@H]1O` came out at 81

###

// Adenosine receptor A2a (Homo sapiens) pIC50 records
Please keep in mind that pIC50 is minus log10 of the molar concentration; only the number is needed.

Just so you know, measured pIC50 for `CCNC(=O)[C@H]1O[C@@H](n2cnc3c(NCC(c4ccccc4)c4ccccc4)nc(C(=O)NCCNC(=O)NCc4ccc(CN(CC)CC)cc4)nc32)[C@H](O)[C@@H]1O` came out at 8.30

Just so you know, measured pIC50 for `O=C(NCCNC(=O)c1nc(NCC(c2ccccc2)c2ccccc2)c2ncn([C@@H]3O[C@H](CO)[C@@H](O)[C@H]3O)c2n1)NCCN1CCCCC1` came out at 7.35

Just so you know, measured pIC50 for `CCNC(=O)[C@H]1O[C@@H](n2cnc3c(NCC(c4ccccc4)c4ccccc4)nc(C(=O)NCCNC(=O)NCCN(C(C)C)C(C)C)nc32)[C@H](O)[C@@H]1O` came out at 8.30
